- System name: hERG (KCNH2) (Homo sapiens)
- Sequence (Q12809 whole entry): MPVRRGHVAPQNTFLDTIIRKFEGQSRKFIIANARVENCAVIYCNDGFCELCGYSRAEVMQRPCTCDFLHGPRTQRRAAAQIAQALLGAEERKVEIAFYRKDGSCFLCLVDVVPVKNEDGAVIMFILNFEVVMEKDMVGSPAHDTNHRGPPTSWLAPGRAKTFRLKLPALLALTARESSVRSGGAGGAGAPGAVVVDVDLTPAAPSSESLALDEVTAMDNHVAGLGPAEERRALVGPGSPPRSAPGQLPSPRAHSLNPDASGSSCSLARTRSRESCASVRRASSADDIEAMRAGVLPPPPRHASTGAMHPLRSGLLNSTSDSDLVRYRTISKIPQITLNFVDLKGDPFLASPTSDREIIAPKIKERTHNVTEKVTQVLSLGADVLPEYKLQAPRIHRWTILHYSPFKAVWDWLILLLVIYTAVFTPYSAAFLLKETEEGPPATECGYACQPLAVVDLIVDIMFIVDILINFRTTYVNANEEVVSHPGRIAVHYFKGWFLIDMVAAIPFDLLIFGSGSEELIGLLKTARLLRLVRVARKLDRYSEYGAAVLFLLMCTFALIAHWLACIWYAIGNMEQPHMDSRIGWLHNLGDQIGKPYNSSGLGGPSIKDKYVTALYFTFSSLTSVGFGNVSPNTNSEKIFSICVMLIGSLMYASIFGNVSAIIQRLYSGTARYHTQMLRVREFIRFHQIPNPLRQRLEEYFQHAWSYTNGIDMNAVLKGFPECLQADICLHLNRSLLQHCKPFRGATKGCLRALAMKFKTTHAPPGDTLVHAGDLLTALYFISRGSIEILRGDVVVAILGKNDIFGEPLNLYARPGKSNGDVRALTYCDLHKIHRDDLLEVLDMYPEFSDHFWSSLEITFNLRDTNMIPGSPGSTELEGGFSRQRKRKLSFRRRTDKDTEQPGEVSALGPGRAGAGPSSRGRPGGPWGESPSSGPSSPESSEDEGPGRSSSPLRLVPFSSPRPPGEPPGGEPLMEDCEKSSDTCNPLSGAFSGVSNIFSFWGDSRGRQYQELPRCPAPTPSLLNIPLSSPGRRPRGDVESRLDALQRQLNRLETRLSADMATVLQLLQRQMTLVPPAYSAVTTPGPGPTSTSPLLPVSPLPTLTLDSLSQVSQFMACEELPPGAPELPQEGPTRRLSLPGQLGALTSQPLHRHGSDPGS
- Test details: in vitro
- Particulars: CHO cells expressing human ERG
- Description: Inhibition of human ERG expressed in CHO cells at 5 uM maintained at -80 mV membrane potential by automated patch-clamp assay relative to control
Tag: true if measured inhibition at 5 µM is not below 80%, false if it is.

* COc1cnc(C(=O)Nc2ccc(F)c([C@]3(C)C=CSC(N)=N3)c2)cn1 | false
* C[C@@]1(c2cc(NC(=O)c3ncc(C#N)cc3Cl)ccc2F)C=CSC(N)=N1 | false
* C[C@@]1(c2cc(NC(=O)c3ccc(F)cn3)ccc2F)C=CSC(N)=N1 | false
* C[C@@]1(c2cc(NC(=O)c3ccc(C#N)cn3)ccc2F)CCSC(N)=N1 | true

From here, focus on the item given below.
Hi, just wondering whether N#Cc1ccc(C(=O)Nc2ccc(F)c([C@]3(CF)CCSC(N)=N3)c2)nc1 shows inhibition at 5 µM of 80% or higher.
true
